Biological target: Sirtuin 2 (Homo sapiens)
Sequence (Q8IXJ6 1-389): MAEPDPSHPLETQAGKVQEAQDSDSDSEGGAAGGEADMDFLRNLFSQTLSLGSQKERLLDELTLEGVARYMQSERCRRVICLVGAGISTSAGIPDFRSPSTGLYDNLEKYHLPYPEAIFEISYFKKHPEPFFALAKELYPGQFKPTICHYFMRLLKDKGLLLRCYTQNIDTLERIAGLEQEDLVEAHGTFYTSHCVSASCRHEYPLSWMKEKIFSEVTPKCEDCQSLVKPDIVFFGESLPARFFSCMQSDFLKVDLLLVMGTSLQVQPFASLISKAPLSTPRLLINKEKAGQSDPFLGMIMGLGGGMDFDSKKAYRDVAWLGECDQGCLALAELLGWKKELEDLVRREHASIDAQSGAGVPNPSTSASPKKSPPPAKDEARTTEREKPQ
Assay: HDAC enzyme assay, Sirtuin 2
Type: biochemical
Conditions: Sirtuin 2
pIC50: −log10 of the molar value.

{"Structure as smiles": "O=C(CCCCCCNC(=O)c1cnc(N(c2ccccc2)c2ccccc2)nc1)NO", "pIC50": "< 5.00"}

Origin of values: patent US9512083B2
